target: DP receptor (Homo sapiens, UniProt Q13258); construct: the human cell line LS174T, which expresses the endogenous DP receptor; endogenous in cells; assay: SPA cAMP assay in human LS174 T cells (human DP functional assay); conditions: inhibition of PGD2 (15 nM final) stimulated cAMP, LS174T cells expressing endogenous DP receptor
Sequence (Q13258 whole entry): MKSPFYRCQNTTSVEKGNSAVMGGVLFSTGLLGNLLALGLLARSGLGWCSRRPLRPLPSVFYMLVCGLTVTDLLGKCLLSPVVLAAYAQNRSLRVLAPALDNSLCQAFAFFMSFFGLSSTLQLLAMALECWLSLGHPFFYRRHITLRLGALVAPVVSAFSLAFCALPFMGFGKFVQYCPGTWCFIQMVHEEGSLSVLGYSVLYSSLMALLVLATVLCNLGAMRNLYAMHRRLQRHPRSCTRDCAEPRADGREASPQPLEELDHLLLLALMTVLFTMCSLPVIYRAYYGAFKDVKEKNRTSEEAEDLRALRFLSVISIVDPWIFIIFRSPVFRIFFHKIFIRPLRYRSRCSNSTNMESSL
Counter-ions that a name gives are not always drawn.
Readout kind: pIC50
pIC50 here is simply -log10 of the concentration when that concentration is written in mol/L.

Input COc1ccc(CCNc2cc(-c3cccc(O)c3)nc(OC)n2)cc1 [Example 15(a), hydrochloride] . Output pIC50: 10.00

Memo: COc1ccc(CCNc2cc(-c3ccc(/C(C)=N\O)s3)nc(OC)n2)cc1 [Example 26(e)] , reported pIC50: 9.10

# pIC50 of "COc1nc(NCCc2ccc3c(c2)OC(F)(F)O3)cc(-c2cccnc2)n1" = 6.67

Briefly, pIC50 measured for "COc1ccc(CCNc2cc(-c3ccc4[nH]c(=O)oc4c3)nc(OC)n2)cc1" : 8.15
